pIC50: −log10 of the molar value.
Record: compiled pIC50 on Serine/threonine-protein kinase pim-2 (Homo sapiens) from multiple reports.

Here are 10 compounds together with their reported answers.
>>> df
                            chemical_smiles  value_reported
0  CN(C)C(=O)CN1CCC(CNc2ccc3nnn(-c4cccc(OC(F)(F)F)c4)c3n2)CC1          < 6.00
1  CS(=O)(=O)N1CCC(Nc2ccc3nnn(-c4cccc(OC(F)(F)F)c4)c3n2)CC1    6.00 to 7.00
2       Fc1ccc(-n2nnc3ccc(N4CCOCC4)nc32)cc1          < 6.00
3  CN1CCC(CNc2nc3c(cc2Cl)nnn3-c2cccc(OC(F)(F)F)c2)CC1          < 6.00
4  FC(F)(F)Oc1cccc(-n2nnc3cc(Cl)c(NC4CC5(CCNCC5)C4)nc32)c1          < 6.00
5  COc1ccc(-c2nnc3c4c(c(NCCN5CCOCC5)nn23)N(C)CCO4)cc1          < 6.00
6  CCOC(=O)c1cc2nnn(-c3ccc(O)cc3)c2nc1NCc1ccc(F)cc1          < 6.00
7  FC(F)(F)Oc1cccc(-n2nnc3ccc(NCC4CCN(Cc5ccncc5)CC4)nc32)c1          < 6.00
8  COc1cccc(CNc2nc3c(-c4nc[nH]n4)cccc3c3cnccc23)c1          > 6.30
9  CN1CCOc2c(NCCCO)nn3c(-c4cccc(OC(F)(F)F)c4)nnc3c21          < 6.00

Serine/threonine-protein kinase pim-2 (Homo sapiens) assay, compound C[C@@H]1C[C@H](N)C[C@H](c2ccncc2NC(=O)c2ccc(F)c3cc(N4CCCN(S(C)(=O)=O)CC4)cnc23)C1 , recorded pIC50 = ≥ 7.00

# value of pIC50, Serine/threonine-protein kinase pim-2 (Homo sapiens), item Fc1ccc(Nc2nc3c(-c4nc[nH]n4)cccc3c3cnccc23)cc1F = > 6.30

###

pIC50: −log10 of the molar value.
Listing of pIC50 toward Serine/threonine-protein kinase pim-2 (Homo sapiens, UniProt Q9P1W9), each taken from a published source.

Below, 2 compounds whose answers are already recorded.
                            chemical_smiles  value_reported
0  Cc1nn(C)c2c1/C=C/c1n[nH]c3ccc(cc13)-c1cnn(C)c1OCCN(C)C2=O            8.09
1  CN1CCOc2c1c(N1CCCC3(CCNCC3)C1)nn1c(-c3cccc(OC(F)(F)F)c3)nnc21          > 7.00

Let us examine a further case.
// pIC50 (Serine/threonine-protein kinase pim-2 (Homo sapiens, UniProt Q9P1W9)) for CN(c1ccccc1Cl)c1nc2c(-c3nnc[nH]3)cccc2c2cnccc12 = > 6.00

###

Literature roundup of Serine/threonine-protein kinase pim-2 (Homo sapiens, UniProt Q9P1W9) data, read-out IC50.

>>> df
                            chemical_smiles  value_reported
0  Fc1cc(F)cc(Nc2nc3c(-c4nnc[nH]4)cccc3c3cnccc23)c1        < 500 nM
1  COc1cccc(CCNc2ccc3nnn(-c4ccc(F)cc4)c3n2)c1OC       > 1000 nM
2  COc1cc(NC2CC3(CCNCC3)C2)nc2c1nnn2-c1cccc(N(C)C)c1       > 1000 nM
3  Fc1cc(Cl)cc(Nc2nc3c(-c4nnc[nH]4)cccc3c3cnccc23)c1       > 1100 nM
4  OC12CCC(Nc3ccc4ncc(-c5cc(C6CC6)[nH]n5)n4n3)(CC1)C2        > 100 nM
5  C[C@@H]1C[C@H](N)C[C@H](c2ccncc2NC(=O)c2ccc(F)c(-c3c(F)cc(N4CCOCC4)cc3F)n2)C1         1.36 nM

Tested system Serine/threonine-protein kinase pim-2 (Homo sapiens, UniProt Q9P1W9); IC50 recorded for NC(=O)c1cc(F)cc2c1nc(Nc1cccc(Cl)c1)c1ccncc12 was > 1100 nM

###

pIC50: −log10 of the molar value.
Please find below pIC50 data on Serine/threonine-protein kinase pim-2 (Homo sapiens, UniProt Q9P1W9) compiled from the literature.

In [3]: df
Out[3]:
                            chemical_smiles  value_reported
0  Cc1cc(Nc2nc3c(-c4nnc[nH]4)cccc3c3cnccc23)ccc1F          > 6.30

Lab book: pIC50 of CN(C)CCCNc1cncc(-c2cccc(/C=C/C(=O)O)c2)n1 noted as 7.03

For record CC(C)c1ccc(/C=C2\SC(=O)NC2=O)cc1 the listed pIC50 is < 4.00
